- ASSAY SYSTEM: UniProt P03372
- Sequence (P03372 whole entry): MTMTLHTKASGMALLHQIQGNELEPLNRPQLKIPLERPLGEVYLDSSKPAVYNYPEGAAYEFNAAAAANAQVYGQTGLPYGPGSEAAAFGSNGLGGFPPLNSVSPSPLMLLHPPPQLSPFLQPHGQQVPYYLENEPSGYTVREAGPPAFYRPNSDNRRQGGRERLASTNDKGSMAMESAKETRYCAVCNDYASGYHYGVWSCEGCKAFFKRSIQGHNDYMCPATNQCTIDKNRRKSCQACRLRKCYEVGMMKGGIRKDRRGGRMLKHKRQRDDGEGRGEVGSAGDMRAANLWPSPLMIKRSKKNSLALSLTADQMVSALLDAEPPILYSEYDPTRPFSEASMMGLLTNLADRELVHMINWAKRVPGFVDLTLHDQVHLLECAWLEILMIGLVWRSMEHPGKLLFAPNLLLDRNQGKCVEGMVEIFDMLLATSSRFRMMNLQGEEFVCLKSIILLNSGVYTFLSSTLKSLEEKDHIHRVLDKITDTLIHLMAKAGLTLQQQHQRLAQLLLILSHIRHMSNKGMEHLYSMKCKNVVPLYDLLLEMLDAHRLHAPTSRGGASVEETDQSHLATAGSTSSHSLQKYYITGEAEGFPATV
- RUN DESCRIPTION: ERE luciferase reporter gene assay in T47D-KBluc cells (target engagement)
- Format: cell-based
- Parameters: T47D human breast cancer cells stably transfected with estrogen responsive element/promoter/luciferase reporter gene; host or cells: T47D-KBluc cells
- CONDITION SET: 10% FBS, 24 hours, Table 1 cereblon centric PROTACs, read-out: ER-α Luciferase IC50
PARAMETER MEASURED: pIC50
The read-out pIC50 is expressed as -log10 of concentration in moles per litre.

Memo: O=C1CCC(N2Cc3cc(CCC(=O)N4CCN(CCOc5ccc(Oc6c(-c7ccc(Br)cc7)sc7cc(O)ccc67)cc5)CC4)ccc3C2=O)C(=O)N1 (stereo not drawn) [Compound 46] , reported pIC50: 8.72

Consider O=C1CCC(N2Cc3c(OCCN4CCN(CCOc5ccc(Oc6c(-c7ccc(Br)cc7)sc7cc(O)ccc67)cc5)CC4)cccc3C2=O)C(=O)N1 (stereo not drawn) [Compound 7] . Its measured pIC50 is 8.96

Recorded result, O=C1CCC(N2Cc3c(OCCN4CC5(CN(CCOc6ccc(Oc7c(-c8ccc(Br)cc8)sc8cc(O)ccc78)cc6)C5)C4)cccc3C2=O)C(=O)N1 (stereo not drawn) [Compound 37] , pIC50: 8.38

// recorded pIC50 for O=C1CCC(N2C(=O)c3ccc(NCCOCCOc4ccc(Oc5c(-c6ccc(Br)cc6)sc6cc(O)ccc56)cc4)cc3C2=O)C(=O)N1 (stereo not drawn) [Compound 75] : 8.18

pIC50 recorded for this compound, O=C1CCC(N2Cc3cc(N4CCN(CCCOc5ccc(Oc6c(-c7ccc(Br)cc7)sc7cc(O)ccc67)cc5)CC4)ccc3C2=O)C(=O)N1 (stereo not drawn) [Compound 59] , is 8.44

Briefly, pIC50 measured for O=C1CCC(N2C(=O)c3ccc(NCCCOCCCOCCCOc4ccc(Oc5c(-c6ccc(Br)cc6)sc6cc(O)ccc56)cc4)cc3C2=O)C(=O)N1 (stereo not drawn) [Compound 84] : 7.51

// field: pIC50; key: O=C1CCC(N2C(=O)c3cccc(NCCOCCOc4ccc(Oc5c(-c6ccc(Br)cc6)sc6cc(O)ccc56)cc4)c3C2=O)C(=O)N1 (stereo not drawn) [Compound 29] ; value = 7.72

The compound O=C1CCC(N2C(=O)c3ccc(OCCCOCCOCCOc4ccc(Oc5c(-c6ccc(Br)cc6)sc6cc(O)ccc56)cc4)cc3C2=O)C(=O)N1 (stereo not drawn) [Compound 79] showed pIC50 equal to 7.56

O=C1CCC(N2Cc3c(OCCOCCOc4ccc(Oc5c(-c6ccc(Br)cc6)sc6cc(O)ccc56)cc4)cccc3C2=O)C(=O)N1 (stereo not drawn) [Compound 17] has a reported pIC50 of 8.54

Record O=C1CCC(N2Cc3cc(NCCCN4CCCN(CCOc5ccc(Oc6c(-c7ccc(Br)cc7)sc7cc(O)ccc67)cc5)CC4)ccc3C2=O)C(=O)N1 (stereo not drawn) [Compound 74] , field pIC50: 7.96

C[C@H](COc1ccc(Oc2c(-c3ccc(Br)cc3)sc3cc(O)ccc23)cc1)N1CCN(CCOc2cccc3c2CN(C2CCC(=O)NC2=O)C3=O)CC1 (stereo partly drawn) [Compound 13] yielded pIC50 of 8.89

compound O=C1CCC(N2Cc3c(OCCOCCOCCOc4ccc(Oc5c(-c6ccc(Br)cc6)sc6cc(O)ccc56)cc4)cccc3C2=O)C(=O)N1 (stereo not drawn) [Compound 19] , pIC50 observed: 8.05
